TARGET UNDER TEST: Transient receptor potential cation channel subfamily A member 1 (Homo sapiens)
Sequence (O75762 whole entry): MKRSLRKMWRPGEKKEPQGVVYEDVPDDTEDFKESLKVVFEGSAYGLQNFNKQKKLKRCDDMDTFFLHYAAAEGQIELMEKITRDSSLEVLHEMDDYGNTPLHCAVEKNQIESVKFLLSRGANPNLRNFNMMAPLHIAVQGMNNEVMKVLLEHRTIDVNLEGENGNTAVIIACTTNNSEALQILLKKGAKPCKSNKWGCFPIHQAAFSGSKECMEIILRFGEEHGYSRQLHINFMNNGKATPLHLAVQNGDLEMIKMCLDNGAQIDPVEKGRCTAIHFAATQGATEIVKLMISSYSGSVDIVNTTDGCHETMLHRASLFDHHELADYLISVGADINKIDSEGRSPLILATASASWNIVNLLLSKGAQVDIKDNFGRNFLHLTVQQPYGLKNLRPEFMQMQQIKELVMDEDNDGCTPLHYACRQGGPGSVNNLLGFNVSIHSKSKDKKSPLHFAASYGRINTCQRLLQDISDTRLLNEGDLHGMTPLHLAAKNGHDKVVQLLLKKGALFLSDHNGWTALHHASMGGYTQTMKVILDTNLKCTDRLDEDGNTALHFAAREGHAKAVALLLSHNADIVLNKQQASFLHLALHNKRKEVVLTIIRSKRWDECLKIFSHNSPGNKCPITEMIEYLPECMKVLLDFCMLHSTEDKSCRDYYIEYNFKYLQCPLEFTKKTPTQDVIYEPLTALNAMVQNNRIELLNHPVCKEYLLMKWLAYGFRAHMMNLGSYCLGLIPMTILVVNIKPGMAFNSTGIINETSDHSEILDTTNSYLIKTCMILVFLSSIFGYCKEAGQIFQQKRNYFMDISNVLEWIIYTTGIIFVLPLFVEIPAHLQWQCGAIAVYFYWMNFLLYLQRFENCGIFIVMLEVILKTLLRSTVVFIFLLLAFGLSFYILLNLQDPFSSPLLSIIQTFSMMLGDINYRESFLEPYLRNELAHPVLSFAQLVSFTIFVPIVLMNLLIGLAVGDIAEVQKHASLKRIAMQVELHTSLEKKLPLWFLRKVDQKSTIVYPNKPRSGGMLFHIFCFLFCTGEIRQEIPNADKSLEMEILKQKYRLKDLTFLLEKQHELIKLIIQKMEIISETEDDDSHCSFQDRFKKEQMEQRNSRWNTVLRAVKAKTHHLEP
ASSAY NOTES: Agonist activity at TRPA1 (unknown origin) by calcium imaging assay relative to allyl isothiocyanate
Set-up: concentration or dose not given beside the values
EXPERIMENTAL CONTEXT: filed as agonist
Each entry below carries its recorded Activity.
Just the number please, in %, no unit attached.

// solved cases for Activity follow
COMPOUND: c1ccc2[nH]ccc2c1
TARGET UNDER TEST: Transient receptor potential cation channel subfamily A member 1 (Homo sapiens)
NUMERIC VALUE: 111

COMPOUND: CCc1ccc(O)c(O)c1
TARGET UNDER TEST: Transient receptor potential cation channel subfamily A member 1 (Homo sapiens)
NUMERIC VALUE: 99

COMPOUND: COc1cc(C(=O)C(O)CO)ccc1O (stereo not drawn)
TARGET UNDER TEST: Transient receptor potential cation channel subfamily A member 1 (Homo sapiens)
NUMERIC VALUE: 63

COMPOUND: C=CCc1ccc(O)c(OC)c1
TARGET UNDER TEST: Transient receptor potential cation channel subfamily A member 1 (Homo sapiens)
NUMERIC VALUE: 122

COMPOUND: Oc1ccccc1Cl
TARGET UNDER TEST: Transient receptor potential cation channel subfamily A member 1 (Homo sapiens)
NUMERIC VALUE: 54

COMPOUND: Cc1ccc(C(C)C)c(O)c1
TARGET UNDER TEST: Transient receptor potential cation channel subfamily A member 1 (Homo sapiens)
NUMERIC VALUE: 140

In: Consider the compound shown here: CCc1ccc(O)c(OC)c1 What is its recorded Activity?
Out: 74

In: Consider the compound shown here: C/C=C/c1ccc(O)c(OC)c1 What is its recorded Activity?
Out: 139

---

TARGET UNDER TEST: UniProt:O75762
ASSAY NOTES: Agonist activity at TRPA1 (unknown origin) by calcium imaging assay relative to allyl isothiocyanate
Set-up: concentration or dose not given beside the values
EXPERIMENTAL CONTEXT: filed as agonist
Each entry below carries its recorded Activity.
Just the number please, in %, no unit attached.

COMPOUND: COc1cc(O)c(CC=C(C)C)c2c1C(=O)CC(c1ccc(O)cc1)O2 (stereo not given)
Activity (%): 90

In: Consider the compound shown here: Cc1cccc(O)c1C What is its recorded Activity?
Out: 82

In: Consider the compound shown here: C=Cc1ccc(O)c(OC)c1 What is its recorded Activity?
Out: 50

In: Consider the compound shown here: Cc1ccc(O)c(O)c1 What is its recorded Activity?
Out: 107

In: Consider the compound shown here: Cc1cccc(O)c1O What is its recorded Activity?
Out: 151

Data origin: ChEMBL document CHEMBL4673264
